Measured values drawn from patent US20040102454A1 for this set.

# System: KM-12
# Assay details: HCC panel assay, sulforhodamine B
# Assay type: cell-based
# Cond: Homo sapiens, KM12; KM-12, Colon; (−)-PLH content 24.1%; read-out: GL50 (the source's name)
Experimental endpoint: IC50 (µM)
Field: numeric (µM). Do not append units.

Exercise: Could you tell me which IC50 is on file for C=CC(C)(C)c1[nH]cnc1/C=C1\NC(=O)[C@H](Cc2ccccc2)NC1=O (racemic) ?
Solution: 0.38

* * *

# Test system: BSY-1
# Assay details: HCC panel assay, sulforhodamine B
# Format: cell-based
# Cond: Homo sapiens; BSY-1, Breast; (−)-PLH content 24.1%; read-out: GL50 (the source's name)
Experimental endpoint: pIC50
Scale: negative log10 of molar concentration, which is what pIC50 denotes.

Exercise: Query (compound): C=CC(C)(C)c1[nH]cnc1/C=C1\NC(=O)[C@H](Cc2ccccc2)NC1=O (racemic) [PLH, phenylahistin] ; field requested: pIC50
Solution: 6.64
